Tested on: c-Src;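 also: 11-residue human phosphosite peptides and single-mutation variants displayed on the E. coli surface, counted by deep sequencing, each peptide's frequency after selection divided by its frequency in the unselected input library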;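 also: frequency after pTyr selection over input frequency; kinase dosed for 20-30% of maximal phosphorylation in three min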
Experiment: phosphorylation enrichment, bacterial display (enrichment ratio); higher = better substrate or ligand; peptides without Tyr show the background
I would appreciate it if you labelled entries criterion met when phosphorylation enrichment is 0.5 or higher, otherwise criterion not met.

# seq string, tested system, label value
measured = [
    ("QKMADYSNKLF [PDPR_Y104_YF]", "c-Src", "criterion met"),
    ("DFTSRYLNASD [PKHD1_Y828]", "c-Src", "criterion not met"),
    ("PFSNSYENSLI [EPOR_Y489_P488S_YF]", "c-Src", "criterion met"),
]

# next sequence below
Assess whether reported phosphorylation enrichment for ESMLRYEVYGG [STOX1_Y607] sits at 0.5 or higher.
criterion met

The reported measurements were obtained from the supplement of paper PMC10065799.
